# MEASURED TARGET: HIV Env of isolate SC05_8C11_2344 (clade B) (HIV)
# METHOD DESCRIPTION: cell-based or functional assay
Reported IC50 (µg/ml) with constrains values for the following binders.
Give just the number in µg/mL; leave the unit off.

Solved cases (3 shown):
# BINDER, IC50 (µg/ml) with constrains [µg/mL]
records = [
    ("ePGDM5 (antibody, V domains shown) VH: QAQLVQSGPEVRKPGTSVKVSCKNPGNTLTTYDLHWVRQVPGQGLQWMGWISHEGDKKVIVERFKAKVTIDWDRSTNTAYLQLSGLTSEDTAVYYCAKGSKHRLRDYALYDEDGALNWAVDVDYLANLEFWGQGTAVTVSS VL: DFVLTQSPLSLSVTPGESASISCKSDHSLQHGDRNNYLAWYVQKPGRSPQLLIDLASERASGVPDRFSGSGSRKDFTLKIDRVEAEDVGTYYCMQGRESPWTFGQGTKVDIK", 3.62),
    ("ePGDM9 (antibody, V domains shown) VH: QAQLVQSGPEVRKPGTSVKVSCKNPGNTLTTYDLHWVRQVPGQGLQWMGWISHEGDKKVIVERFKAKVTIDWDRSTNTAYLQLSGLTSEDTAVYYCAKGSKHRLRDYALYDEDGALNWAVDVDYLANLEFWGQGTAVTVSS VL: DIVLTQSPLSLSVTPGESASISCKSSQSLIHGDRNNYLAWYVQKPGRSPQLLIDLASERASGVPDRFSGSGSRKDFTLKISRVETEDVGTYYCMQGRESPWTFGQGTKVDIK", 1.06),
    ("PGDM1400 (antibody, V domains shown) VH: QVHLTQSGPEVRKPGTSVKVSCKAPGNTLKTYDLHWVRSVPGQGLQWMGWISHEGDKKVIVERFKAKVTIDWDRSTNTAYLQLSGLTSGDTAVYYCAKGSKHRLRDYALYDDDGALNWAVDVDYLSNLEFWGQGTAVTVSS VL: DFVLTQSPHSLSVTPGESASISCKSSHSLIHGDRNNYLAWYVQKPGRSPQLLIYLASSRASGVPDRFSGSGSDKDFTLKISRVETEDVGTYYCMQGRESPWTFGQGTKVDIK", 4.46),
]

# IC50 (µg/ml) with constrains lookup, item ePGDM13 (antibody, V domains shown) VH: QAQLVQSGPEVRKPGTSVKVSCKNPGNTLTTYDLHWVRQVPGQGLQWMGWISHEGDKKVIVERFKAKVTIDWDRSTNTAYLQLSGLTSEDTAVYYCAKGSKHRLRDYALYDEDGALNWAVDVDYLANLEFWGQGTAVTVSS VL: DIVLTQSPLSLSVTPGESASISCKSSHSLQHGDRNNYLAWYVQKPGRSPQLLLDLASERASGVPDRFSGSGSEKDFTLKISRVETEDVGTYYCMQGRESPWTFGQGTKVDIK
2.36
